Each entry below carries its reported log10(MIC).
- System: S. aureus ATCC 25923
- TEST_METHOD_NOTES: MIC, broth dilution, S. aureus
- Type: cell-based, Staphylococcus aureus
- RUN_PARAMETERS: Staphylococcus aureus, ATCC25923; S. aureus ATCC 25923, 18 h; read-out: MIC Sa
For clarity, the numbers are log10 values of MIC expressed in µM.

The measured log10(MIC) associated with Cc1ccc2[nH]cc(C(=O)NCCCNCCCCCCCNCCCNC(=O)c3c[nH]c4ccc(C)cc34)c2c1 [Compound 15c] reads 1.80

Lookup result for O=C(NCCCNCCCCCCCCCCCCNCCCNC(=O)c1c[nH]c2c(F)cccc12)c1c[nH]c2c(F)cccc12.O=C(O)C(F)(F)F.O=C(O)C(F)(F)F [Compound 16f] ; measured log10(MIC): 2.36

Item: Cc1ccc2[nH]cc(C(=O)NCCCNCCCCCCCCNCCCNC(=O)c3c[nH]c4ccc(C)cc34)c2c1 [Compound 15d] | log10(MIC): 1.49

Hey, just so you know, these numbers are from paper PMC10967822.
